Target: T1, Rif1 full-length (His6-Rif1-FLAG3) (Schizosaccharomyces pombe (fission …, UniProt Q96UP3 1-1400))
T1 sequence: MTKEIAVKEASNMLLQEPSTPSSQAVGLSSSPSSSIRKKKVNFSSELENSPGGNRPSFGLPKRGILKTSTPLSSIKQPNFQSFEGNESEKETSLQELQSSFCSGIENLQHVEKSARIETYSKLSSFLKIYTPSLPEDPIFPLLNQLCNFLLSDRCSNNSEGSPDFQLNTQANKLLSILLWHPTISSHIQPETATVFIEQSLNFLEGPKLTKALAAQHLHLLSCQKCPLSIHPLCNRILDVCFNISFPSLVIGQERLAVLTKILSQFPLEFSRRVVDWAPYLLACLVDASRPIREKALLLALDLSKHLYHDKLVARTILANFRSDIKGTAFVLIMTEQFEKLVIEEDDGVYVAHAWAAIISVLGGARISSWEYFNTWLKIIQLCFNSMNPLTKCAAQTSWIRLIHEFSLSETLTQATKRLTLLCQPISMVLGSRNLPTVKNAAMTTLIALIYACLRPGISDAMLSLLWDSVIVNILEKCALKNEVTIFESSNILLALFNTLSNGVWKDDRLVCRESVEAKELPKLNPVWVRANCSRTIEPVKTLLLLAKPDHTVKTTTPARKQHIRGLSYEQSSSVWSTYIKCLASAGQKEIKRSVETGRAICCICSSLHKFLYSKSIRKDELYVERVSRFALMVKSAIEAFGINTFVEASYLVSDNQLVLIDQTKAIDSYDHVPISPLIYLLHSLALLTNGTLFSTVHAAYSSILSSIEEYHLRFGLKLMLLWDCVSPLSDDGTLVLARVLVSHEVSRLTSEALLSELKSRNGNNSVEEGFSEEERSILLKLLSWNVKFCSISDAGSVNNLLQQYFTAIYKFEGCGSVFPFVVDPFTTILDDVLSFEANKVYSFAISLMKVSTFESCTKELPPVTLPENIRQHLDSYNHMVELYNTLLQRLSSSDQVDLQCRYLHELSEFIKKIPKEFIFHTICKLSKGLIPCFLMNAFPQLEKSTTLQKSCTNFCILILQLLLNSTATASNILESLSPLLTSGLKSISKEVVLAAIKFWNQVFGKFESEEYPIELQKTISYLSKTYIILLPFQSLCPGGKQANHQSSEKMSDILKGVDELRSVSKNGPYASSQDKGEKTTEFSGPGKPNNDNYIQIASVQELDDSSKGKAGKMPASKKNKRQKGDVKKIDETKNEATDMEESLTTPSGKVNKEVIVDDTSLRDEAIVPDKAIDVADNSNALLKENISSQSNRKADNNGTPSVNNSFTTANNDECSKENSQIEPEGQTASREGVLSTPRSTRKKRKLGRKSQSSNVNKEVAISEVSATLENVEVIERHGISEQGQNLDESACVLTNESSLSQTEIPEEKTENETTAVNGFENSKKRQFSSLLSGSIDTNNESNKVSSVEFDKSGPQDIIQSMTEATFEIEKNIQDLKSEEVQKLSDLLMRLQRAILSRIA
Test: EMSA; KCl; EMSA with oligos heat-denatured and renatured in 50 mM KCl/40% PEG200 (Fig 5: 50 mM Tris-HCl pH 7.5 with KCl, NaCl or none); gel shift buffer 40 mM Hepes-KOH pH 7.6, 50 mM KCl, 1 mM EDTA, 10% glycerol, 0.01% Triton X-100; pull-down 30 min at room temperature; +++/++/+ = >50/>16/>6% shift at 1 nM Rif1
Settings: protein: recombinant; tags: N-term His6, C-term FLAG3; label: 32P; parallel G4
OBSERVED_PROPERTY: binding result

Field: example entries. Status: answers known.
# BINDER, binding result
measured = [
    ("TTGGGGTGGGTGGGTGGGT (structured_DNA) [T95_2T_G]", "no binding"),
    ("AGGGAGGGAGGGAGGGTGG (structured_DNA) [CEB1_A]", "binds"),
    ("Rif1-8 (70 nt) (structured_DNA) DNA: GTGGGGGATGTGGGATAGACTATTTTAGACTTGAGACTGTGTATTCACTTAAAAGTGCTATGTGGGGGCA", "binds"),
    ("TGAGGGTGGTGAGGGTGGGGA (structured_DNA) [Pu24T]", "binds"),
    ("AGGGGGGAGGGAGGGT (structured_DNA) [CEB1_deltaGG]", "binds"),
    ("TTGGGGGTGGGTGGGTGGGT (structured_DNA) [T95_2T_GG]", "no binding"),
]

As a next step, examine the binder that follows.
Exam item: Using the record for TAGGGGGGTTAGGGTTAGGG (structured_DNA) [Htelo1_no_spacer] , report its binding result.
Marked response: binds
